Experiment: Neutral red uptake (NRU) cytotoxicity assay
Type: cell-based, human
Conditions: human, differentiated HepaRG cells, NRU assay, 72-h incubation
Protocol: Wild-type human hepatoma HepaRG cells obtained from Biopredic International (Saint Grégoire, France) were cultivated for 4 weeks in a Binder cell culture incubator maintained at 37 °C in a 5% humidified atmosphere with 5% CO2 before they were employed in this study. […] Cytotoxicity assays were performed in 96-well plates at a density of 9000 cells per well, and test compounds were incubated for 72 h. […] Means and standard deviations for each treatment were calculated. […]
Readout: EC50 at 72 h

## Task Any idea what EC50 at 72 h was measured for CC1COC(Cn2cncn2)(c2ccc(Oc3ccc(Cl)cc3)cc2Cl)O1 (stereo not shown) ?
## Result 15.9 µg/mL

---

Biological target: CYP2D6 (Homo sapiens, UniProt P10635)
Construct: purchased Promega
Sequence (P10635 whole entry): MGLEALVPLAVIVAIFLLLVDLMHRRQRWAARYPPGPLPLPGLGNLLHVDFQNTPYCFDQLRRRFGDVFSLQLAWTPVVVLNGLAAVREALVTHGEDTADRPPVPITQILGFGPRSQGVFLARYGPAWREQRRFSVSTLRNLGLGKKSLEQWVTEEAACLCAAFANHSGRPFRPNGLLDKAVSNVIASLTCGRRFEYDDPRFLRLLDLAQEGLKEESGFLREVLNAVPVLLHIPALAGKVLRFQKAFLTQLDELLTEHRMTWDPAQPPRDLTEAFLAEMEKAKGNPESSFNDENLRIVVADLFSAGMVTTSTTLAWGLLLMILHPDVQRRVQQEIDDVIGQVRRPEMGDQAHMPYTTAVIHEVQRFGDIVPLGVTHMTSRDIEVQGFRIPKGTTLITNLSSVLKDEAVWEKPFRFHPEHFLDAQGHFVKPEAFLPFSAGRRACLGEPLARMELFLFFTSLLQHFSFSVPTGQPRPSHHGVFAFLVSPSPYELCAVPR
Experiment: P450-Glo screening system, CYP inhibition
Type: biochemical
Settings: recombinant human CYP, luciferin-ME EGE
Readout: pIC50
Lab note: report pIC50 as minus log10 of the concentration in molar units, number only.

## Task Any idea what pIC50 was measured for C#CCOc1ccc(CCNC(=O)C(OCC#C)c2ccc(Cl)cc2)cc1OC (stereo not shown) ?
## Result 4.74

---

Test: WST-1 cytotoxicity assay
Format: cell-based, human
Settings: human, differentiated HepaRG cells, WST-1 assay, 72 h incubation
Readout: EC50 at 72 h
Please append the unit to your numeric answer.

## Task Any idea what EC50 at 72 h was measured for CC1COC(Cn2cncn2)(c2ccc(Oc3ccc(Cl)cc3)cc2Cl)O1 (stereo not shown) ?
## Result 11.8 µg/mL

---

Target: CYP2C19 (Homo sapiens, UniProt P33261)
Construct: purchased Promega
Sequence (P33261 whole entry): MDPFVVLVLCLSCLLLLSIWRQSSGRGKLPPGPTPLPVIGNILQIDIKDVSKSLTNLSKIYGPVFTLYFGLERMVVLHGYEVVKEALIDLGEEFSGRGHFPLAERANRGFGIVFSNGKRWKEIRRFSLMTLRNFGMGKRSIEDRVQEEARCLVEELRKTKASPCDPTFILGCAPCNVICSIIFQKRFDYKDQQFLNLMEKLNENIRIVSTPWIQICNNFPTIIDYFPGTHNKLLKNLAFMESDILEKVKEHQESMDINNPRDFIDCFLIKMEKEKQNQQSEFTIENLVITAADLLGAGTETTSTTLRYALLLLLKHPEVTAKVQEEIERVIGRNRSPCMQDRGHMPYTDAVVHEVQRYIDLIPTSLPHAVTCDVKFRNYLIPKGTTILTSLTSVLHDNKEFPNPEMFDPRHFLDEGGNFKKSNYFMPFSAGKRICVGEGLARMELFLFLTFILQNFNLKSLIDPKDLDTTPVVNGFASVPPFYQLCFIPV
Assay: P450-Glo screening system, CYP inhibition
Format: biochemical
Conditions: recombinant human CYP, luciferin-H EGE
Readout: pIC50
Lab note: report pIC50 as minus log10 of the concentration in molar units, number only.

## Task Any idea what pIC50 was measured for C#CCOc1ccc(CCNC(=O)C(OCC#C)c2ccc(Cl)cc2)cc1OC (stereo not shown) ?
## Result 6.08

---

System: CYP2C9
Test: CYP450 reaction phenotyping, CYP2C9-Silensomes
Format: in vitro ADME
Settings: human, pH 7.4
Readout: microsomal CLint at 1 µM (µL/min/mg)
Use µL/min/mg as the unit, but write only the number.

## Task Any idea what microsomal CLint at 1 µM was measured for CC1COC(Cn2cncn2)(c2ccc(Oc3ccc(Cl)cc3)cc2Cl)O1 (stereo not shown) ?
## Result 12.5

---

Biological target: CYP3A4 (Homo sapiens)
Construct: purchased Promega
Sequence (P08684 whole entry): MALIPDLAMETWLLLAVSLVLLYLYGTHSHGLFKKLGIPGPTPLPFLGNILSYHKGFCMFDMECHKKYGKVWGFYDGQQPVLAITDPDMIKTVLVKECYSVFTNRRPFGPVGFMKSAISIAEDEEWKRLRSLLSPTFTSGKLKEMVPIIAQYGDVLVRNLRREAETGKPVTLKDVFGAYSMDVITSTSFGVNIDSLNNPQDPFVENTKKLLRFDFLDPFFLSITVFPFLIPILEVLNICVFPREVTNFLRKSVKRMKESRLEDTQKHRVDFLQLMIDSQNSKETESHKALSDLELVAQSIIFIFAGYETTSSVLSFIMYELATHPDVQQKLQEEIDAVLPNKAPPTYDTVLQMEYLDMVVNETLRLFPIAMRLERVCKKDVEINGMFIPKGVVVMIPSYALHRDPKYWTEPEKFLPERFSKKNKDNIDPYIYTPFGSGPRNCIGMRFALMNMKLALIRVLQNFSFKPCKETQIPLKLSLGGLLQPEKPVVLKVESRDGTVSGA
Assay: P450-Glo screening system, CYP inhibition
Type: biochemical
Conditions: recombinant human CYP, luciferin-PPXE
Readout: IC50 (µM)
Use µM as the unit, but write only the number.

## Task Any idea what IC50 was measured for C#CCOc1ccc(CCNC(=O)C(OCC#C)c2ccc(Cl)cc2)cc1OC (stereo not shown) [MDP, mandipropamid] ?
## Result 1.32

---

Biological target: CYP2C9 (Homo sapiens)
Construct: purchased Promega
Sequence (P11712 whole entry): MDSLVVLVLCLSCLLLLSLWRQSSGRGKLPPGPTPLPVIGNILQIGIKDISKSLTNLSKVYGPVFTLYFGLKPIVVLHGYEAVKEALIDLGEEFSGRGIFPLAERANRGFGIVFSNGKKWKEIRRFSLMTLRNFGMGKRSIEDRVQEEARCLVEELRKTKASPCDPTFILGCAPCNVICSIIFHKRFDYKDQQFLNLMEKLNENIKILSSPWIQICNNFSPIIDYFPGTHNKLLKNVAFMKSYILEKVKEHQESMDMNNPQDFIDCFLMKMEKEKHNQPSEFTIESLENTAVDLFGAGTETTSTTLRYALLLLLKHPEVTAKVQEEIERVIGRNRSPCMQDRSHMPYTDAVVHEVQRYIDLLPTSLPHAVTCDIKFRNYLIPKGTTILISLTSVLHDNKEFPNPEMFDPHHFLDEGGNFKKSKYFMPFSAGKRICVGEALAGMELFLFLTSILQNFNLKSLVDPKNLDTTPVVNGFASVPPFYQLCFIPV
Experiment: P450-Glo screening system, CYP inhibition
Format: biochemical
Settings: recombinant human CYP, luciferin-H
Readout: IC50 (µM)
Use µM as the unit, but write only the number.

## Task Any idea what IC50 was measured for C#CCOc1ccc(CCNC(=O)C(OCC#C)c2ccc(Cl)cc2)cc1OC (stereo not shown) ?
## Result 1.18
